# system.tested: Neuropeptide FF receptor 2 (Homo sapiens, UniProt Q9Y5X5)
# Sequence (Q9Y5X5 whole entry): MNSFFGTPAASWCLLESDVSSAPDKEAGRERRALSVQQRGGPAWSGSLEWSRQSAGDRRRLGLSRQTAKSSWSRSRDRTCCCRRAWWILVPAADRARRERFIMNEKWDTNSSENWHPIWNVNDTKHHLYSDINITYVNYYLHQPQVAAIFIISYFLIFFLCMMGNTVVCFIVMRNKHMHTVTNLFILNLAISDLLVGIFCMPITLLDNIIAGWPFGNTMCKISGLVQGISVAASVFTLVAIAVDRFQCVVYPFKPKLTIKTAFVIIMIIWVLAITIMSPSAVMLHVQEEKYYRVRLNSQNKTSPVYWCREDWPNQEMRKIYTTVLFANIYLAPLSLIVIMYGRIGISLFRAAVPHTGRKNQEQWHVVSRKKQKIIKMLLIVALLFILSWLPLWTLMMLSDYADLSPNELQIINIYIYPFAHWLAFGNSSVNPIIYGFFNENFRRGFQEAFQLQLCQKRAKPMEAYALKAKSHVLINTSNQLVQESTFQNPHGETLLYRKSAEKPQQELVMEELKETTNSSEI
# assay.summary: Displacement of [3H]FFRF-NH2 from human flag-tagged NPFF2 receptor expressed in CHO cells at 500 nM by scintillation counting
# Type: cell-based
# inhibition annotations

Solved entries (count: 3):
* N=C(N)NCCC[C@H](NC(=O)c1ccc2ccccc2c1)C(=O)N[C@@H](Cc1ccccc1)C(N)=O | 23%
* N=C(N)NCCC[C@H](NC(=O)c1ccccc1-c1ccccc1)C(=O)N[C@@H](Cc1ccccc1)C(N)=O | 22%
* N=C(N)NCCC[C@H](NC(=O)c1cccc(-c2ccccc2)c1)C(=O)N[C@@H](Cc1ccccc1)C(N)=O | 27%

Could you now look at the following compound, please?
Query block: Look up and state reported inhibition for N=C(N)NCCC[C@H](NC(=O)C12CC3CC(CC(C3)C1)C2)C(=O)N[C@@H](Cc1ccccc1)C(N)=O
Result block: 40%

====

# system.tested: Neuropeptide FF receptor 2 (Homo sapiens)
# assay.summary: Displacement of [3H]FFRF-NH2 from human flag-tagged NPFF2 receptor expressed in CHO cells at 5 uM by scintillation counting
# Type: cell-based
assay.readout: inhibition (%)
Give the value, in units of %, as a plain number.

- COc1ccc(/C=C/C(=O)N[C@@H](CCCNC(=N)N)C(=O)N[C@@H](Cc2ccccc2)C(N)=O)cc1OC: 34
- N=C(N)NCCC[C@H](NC(=O)c1c(Cl)cccc1Cl)C(=O)N[C@@H](Cc1ccccc1)C(N)=O: 11
- N=C(N)NCCC[C@H](NC(=O)CC(c1ccccc1)c1ccccc1)C(=O)N[C@@H](Cc1ccccc1)C(N)=O: 40
- N=C(N)NCCC[C@H](NC(=O)Cc1ccc(O)c(O)c1)C(=O)N[C@@H](Cc1ccccc1)C(N)=O: 38
- N=C(N)NCCC[C@H](NC(=O)C(c1ccccc1)c1ccccc1)C(=O)N[C@@H](Cc1ccccc1)C(N)=O: 33

Query block: Look up and state reported inhibition for N=C(N)NCCC[C@@H](NC(=O)c1ccc(-c2ccccc2)cc1)C(=O)N[C@H](Cc1ccccc1)C(N)=O
Result block: 50

Query block: Look up and state reported inhibition for N=C(N)NCCC[C@H](NC(=O)c1ccc(Cl)cc1)C(=O)N[C@@H](Cc1ccccc1)C(N)=O
Result block: 7

Query block: Look up and state reported inhibition for N=C(N)NCCC[C@@H](NC(=O)Cc1ccccc1)C(=O)N[C@@H](Cc1ccccc1)C(N)=O
Result block: 40

====

# inhibition annotations
# system.tested: UniProt:Q9GZQ6
# Sequence (Q9GZQ6 whole entry): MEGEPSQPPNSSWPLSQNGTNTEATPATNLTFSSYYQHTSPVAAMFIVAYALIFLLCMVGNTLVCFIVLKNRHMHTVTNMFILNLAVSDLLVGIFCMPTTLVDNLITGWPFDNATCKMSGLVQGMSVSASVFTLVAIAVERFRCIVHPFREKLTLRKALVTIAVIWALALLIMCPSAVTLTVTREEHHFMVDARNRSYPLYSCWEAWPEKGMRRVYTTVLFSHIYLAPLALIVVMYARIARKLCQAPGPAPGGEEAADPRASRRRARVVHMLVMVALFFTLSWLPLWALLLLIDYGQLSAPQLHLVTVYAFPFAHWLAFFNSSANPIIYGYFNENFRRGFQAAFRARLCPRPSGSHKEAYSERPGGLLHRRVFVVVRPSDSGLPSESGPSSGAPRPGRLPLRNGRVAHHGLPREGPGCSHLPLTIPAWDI
# assay.summary: Displacement of [3H]FFRF-NH2 from human flag-tagged NPFF1 receptor expressed in CHO cells at 5 uM by scintillation counting
# Type: cell-based
Give the value, in units of %, as a plain number.

Solved entries (count: 10):
• N=C(N)NCCC[C@H](NC(=O)C12CC3CC(CC(C3)C1)C2)C(=O)N[C@@H](Cc1ccccc1)C(N)=O = 97
• N=C(N)NCCC[C@@H](NC(=O)c1ccccc1)C(=O)N[C@H](Cc1ccccc1)C(N)=O = 73
• N=C(N)NCCC[C@H](NC(=O)Cc1ccc(O)c(O)c1)C(=O)N[C@@H](Cc1ccccc1)C(N)=O = 61
• N=C(N)NCCC[C@H](NC(=O)c1cccc(-c2ccccc2)c1)C(=O)N[C@@H](Cc1ccccc1)C(N)=O = 82
• N=C(N)NCCC[C@H](NC(=O)c1ccccc1-c1ccccc1)C(=O)N[C@@H](Cc1ccccc1)C(N)=O = 100
• N=C(N)NCCC[C@H](NC(=O)C12CC3CC(CC(C3)C1)C2)C(=O)N[C@H](Cc1ccccc1)C(N)=O = 79
• COc1ccc(C(=O)N[C@@H](CCCNC(=N)N)C(=O)N[C@@H](Cc2ccccc2)C(N)=O)cc1OC = 65
• N=C(N)NCCC[C@H](NC(=O)c1ccc2ccccc2n1)C(=O)N[C@@H](Cc1ccccc1)C(N)=O = 100
• N=C(N)NCCC[C@@H](NC(=O)C12CC3CC(CC(C3)C1)C2)C(=O)N[C@H](Cc1ccccc1)C(N)=O = 100
• N=C(N)NCCC[C@H](NC(=O)c1ccc(Cl)c(Cl)c1)C(=O)N[C@@H](Cc1ccccc1)C(N)=O = 77

Query block: Look up and state reported inhibition for CC(C)(C)C(=O)N[C@@H](CCCNC(=N)N)C(=O)N[C@@H](Cc1ccccc1)C(N)=O
Result block: 91

Query block: Look up and state reported inhibition for N=C(N)NCCC[C@@H](NC(=O)/C=C/c1ccccc1)C(=O)N[C@H](Cc1ccccc1)C(N)=O
Result block: 82

Query block: Look up and state reported inhibition for N=C(N)NCCC[C@H](NC(=O)c1ccccc1)C(=O)N[C@@H](Cc1ccccc1)C(N)=O
Result block: 99

Query block: Look up and state reported inhibition for N=C(N)NCCC[C@H](NC(=O)/C=C/c1ccccc1O)C(=O)N[C@@H](Cc1ccccc1)C(N)=O
Result block: 82

Query block: Look up and state reported inhibition for N=C(N)NCCC[C@H](NC(=O)/C=C/c1cnc[nH]1)C(=O)N[C@@H](Cc1ccccc1)C(N)=O
Result block: 22

Query block: Look up and state reported inhibition for N=C(N)NCCC[C@H](NC(=O)c1ccc2nc[nH]c2c1)C(=O)N[C@@H](Cc1ccccc1)C(N)=O
Result block: 28

Query block: Look up and state reported inhibition for COc1ccc(C(=O)N[C@@H](CCCNC(=N)N)C(=O)N[C@@H](Cc2ccccc2)C(N)=O)cc1
Result block: 71

Query block: Look up and state reported inhibition for COc1cccc(CC(=O)N[C@@H](CCCNC(=N)N)C(=O)N[C@@H](Cc2ccccc2)C(N)=O)c1
Result block: 89

Query block: Look up and state reported inhibition for N=C(N)NCCC[C@@H](NC(=O)C12CC3CC(CC(C3)C1)C2)C(=O)N[C@@H](Cc1ccccc1)C(N)=O
Result block: 100
